Task for the reader: assign each of the following binders its reported pKd.
- TARGET DESC: T1, human CD22-ECD-His protein (human, UniProt P20273 20-687)
- T1 construct: Recombinant, from HEK293E cells; also called hCD22-ECD-His; human CD22-His protein; not shown: His tag
- T1 sequence: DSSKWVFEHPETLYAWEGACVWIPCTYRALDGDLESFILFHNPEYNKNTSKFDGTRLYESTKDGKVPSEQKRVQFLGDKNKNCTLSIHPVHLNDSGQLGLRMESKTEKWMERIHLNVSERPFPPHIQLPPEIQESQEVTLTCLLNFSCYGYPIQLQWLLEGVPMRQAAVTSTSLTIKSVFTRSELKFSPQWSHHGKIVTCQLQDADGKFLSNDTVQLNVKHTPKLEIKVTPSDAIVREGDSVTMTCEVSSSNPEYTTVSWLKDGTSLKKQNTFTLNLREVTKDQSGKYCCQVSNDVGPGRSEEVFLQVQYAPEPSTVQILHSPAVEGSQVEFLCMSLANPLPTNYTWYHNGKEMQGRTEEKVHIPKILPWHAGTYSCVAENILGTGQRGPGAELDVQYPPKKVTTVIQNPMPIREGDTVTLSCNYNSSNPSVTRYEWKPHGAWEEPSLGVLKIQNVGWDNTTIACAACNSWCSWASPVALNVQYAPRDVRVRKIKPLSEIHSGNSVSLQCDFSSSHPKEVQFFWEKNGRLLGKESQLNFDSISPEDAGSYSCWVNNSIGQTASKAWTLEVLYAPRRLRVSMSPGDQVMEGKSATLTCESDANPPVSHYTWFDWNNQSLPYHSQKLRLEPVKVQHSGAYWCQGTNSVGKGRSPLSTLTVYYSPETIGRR
- TEST DESCRIPTION: SPR (Biacore), antibody captured on Protein A chip, CD22-ECD-His in solution
One number for each entry, as −log10 of the molar value.

- BINDER: "F2.70.2 (antibody, human IgG1, lambda, V domains shown, Chimeric IgG1 lambda) VH: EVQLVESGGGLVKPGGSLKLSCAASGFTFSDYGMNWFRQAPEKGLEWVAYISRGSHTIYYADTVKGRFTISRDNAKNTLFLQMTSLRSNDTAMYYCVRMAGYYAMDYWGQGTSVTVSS VL: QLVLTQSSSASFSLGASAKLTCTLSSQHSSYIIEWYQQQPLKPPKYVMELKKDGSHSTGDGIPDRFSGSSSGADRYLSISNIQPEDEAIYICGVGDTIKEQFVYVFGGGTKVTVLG"
  RECORDED RESULT: 7.97

Let us move to another entry and its pKd.
Ask: If you can, please state the reported pKd value of F2.151.13 (antibody, human IgG1, lambda, V domains shown, Chimeric IgG1 lambda) VH: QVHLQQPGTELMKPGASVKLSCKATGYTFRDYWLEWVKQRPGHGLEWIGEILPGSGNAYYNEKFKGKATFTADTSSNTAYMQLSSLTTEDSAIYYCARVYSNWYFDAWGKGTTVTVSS VL: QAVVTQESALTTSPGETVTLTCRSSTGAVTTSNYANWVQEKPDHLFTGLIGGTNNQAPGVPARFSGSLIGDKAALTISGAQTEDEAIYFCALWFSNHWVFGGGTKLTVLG .
Reply: 7.64
